Biological target: T1, mouse angiopoietin-2 (mouse, UniProt O35608 19-496, limits assumed)
T1 construct: Bought recombinant protein; also called mouse Ang-2; mAng-2
T1 sequence (looked up): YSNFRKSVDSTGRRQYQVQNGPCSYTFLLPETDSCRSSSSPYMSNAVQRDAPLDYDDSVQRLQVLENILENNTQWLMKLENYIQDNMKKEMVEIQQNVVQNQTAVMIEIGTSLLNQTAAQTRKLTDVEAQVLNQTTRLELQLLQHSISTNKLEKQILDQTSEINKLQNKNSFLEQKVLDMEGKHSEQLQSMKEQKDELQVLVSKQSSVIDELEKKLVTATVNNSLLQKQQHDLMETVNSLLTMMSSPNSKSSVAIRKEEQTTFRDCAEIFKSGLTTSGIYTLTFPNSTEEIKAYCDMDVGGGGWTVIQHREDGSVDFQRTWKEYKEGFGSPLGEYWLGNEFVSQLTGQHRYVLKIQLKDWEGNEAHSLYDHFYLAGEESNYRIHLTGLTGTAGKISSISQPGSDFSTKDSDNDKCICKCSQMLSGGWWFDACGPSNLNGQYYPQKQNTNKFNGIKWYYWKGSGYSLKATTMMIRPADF
Experiment: competition cell ECL; mAng-2 pre-incubated with binder, free Ang-2 captured on HEK:hTie-2 cells (competitor)
Catalogue of IC50 readings, one per entry.
Numeric only. Scale: nM

Kindly indicate its recorded IC50. Item: hNGAL lipocalin mutein SEQ ID NO: 8 (designed binder, Mutein of mature hNGAL; Biotinylated with NHS-PEG4-Biotin for the SPR assay) QDSTSDLIPAPPLSKVPLQQNFQDNQFHGKWYVVGQAGNYILREDKDPGKMWATIYELKEDKSYDVTEVSFGAKKCNYRIWTFVPGSQPGEFTLGGIKSDPGGTSTLVRVVSTNYNQHAMVFFKHVLQNREFFEITLYGRTKELTSELKENFIRFSKSLGLPENHIVFPVPIDQCIDGSAWSHPQFEK
1.25

For hNGAL lipocalin mutein SEQ ID NO: 10 (designed binder, Mutein of mature hNGAL) QDSTSDLIPAPPLSKVPLQQNFQDNQFHGKWYVVGQAGNYILREDKDPQKMWATIYELKEDKSYDVTGVSFGAKKCVYRIWTFVPGSQPGEFTLGGIKSPPGGTSTLVRVVSTNYNQHAMVFFKHVLQNREFFEITLYGRTKELTSELKENFIRFSKSLGLPENHIVFPVPIDQCIDGSAWSHPQFEK , write its IC50.
1.05

Specify IC50 for hNGAL lipocalin mutein SEQ ID NO: 7 (designed binder, Mutein of mature hNGAL; Biotinylated with NHS-PEG4-Biotin for the SPR assay) QDSTSDLIPAPPLSKVPLQQNFQDNQFHGKWYVVGHAGNYILREDKDPEKMWATIYELKEDKSYDVTEVSFGPKKCNYRIWTFVPGSQPGEFTLGGIKSPPGDTSTLVRVVSTNYNQHAMVFFKHVLQNREFFEITLYGRTKELTSELKENFIRFSKSLGLPENHIVFPVPIDQCIDGSAWSHPQFEK and stop.
1.23

Data origin, for the record: patent US20180016312A1
